Reference source for all entries: PubChem BioAssay (NCI)

- System: 786-0 renal
- method.notes: NCI tumour cell line growth inhibition, 48 h
For each record, write down the corresponding TGI.

Request: Entry under review: C=CCC(C)(C(=O)NCCC)C(=O)c1ccccc1O (stereo not given) . Reported TGI?
Response: > 100 µM

Request: Entry under review: CC(=O)OC1=C2C(CC3C4CC=C5CC(OC(C)=O)CCC5(C)C4CCC23C)C2C(=O)N(Cc3ccccc3)C(=O)C2C1 (stereo not given) . Reported TGI?
Response: > 100 µM

Request: Entry under review: N#Cc1ccc2oc3ccc(C#N)cc3c(=O)c2c1 . Reported TGI?
Response: 68 µM

Request: Entry under review: Clc1cccc(N=C/C=C/Nc2cccc(Cl)c2)c1 . Reported TGI?
Response: 37.4 µM

Request: Entry under review: CC(C)(C)n1cc(-c2ccnc(NCCNS(=O)(=O)c3cccc4ccccc34)c2)c(-c2cccc(F)c2)n1 . Reported TGI?
Response: 6.75 µM

Request: Entry under review: O=c1c2cccnc2ncn1CCCN1CCOCC1 . Reported TGI?
Response: > 100 µM

Request: Entry under review: Cc1ccc(Nc2nc(NS(=O)(=O)c3cc(C)c(Cl)cc3S)n[nH]2)cc1 . Reported TGI?
Response: > 100 µM

Request: Entry under review: Clc1ccc(-c2nn3c(C45CC6CC(CC(C6)C4)C5)nnc3s2)cc1 . Reported TGI?
Response: > 100 µM

Request: Entry under review: O=[N+]([O-])c1ccc2c(c1)S(=O)c1ccccc1-2 (stereo not given) . Reported TGI?
Response: > 100 µM

Request: Entry under review: CCOC(=O)O/N=C1/C(c2c(O)[nH]c3ccccc23)=Nc2ccccc21 . Reported TGI?
Response: 28 µM

====

- Tested on: SN12C renal
- method.notes: NCI tumour cell line growth inhibition, 48 h
measure: GI50

Request: Entry under review: O=C(Nc1ccccc1F)c1ccc(NC2=C(Cl)C(=O)N(Cc3ccccc3)C2=O)cc1 . Reported GI50?
Response: 1.98 µM

Request: Entry under review: COc1cc2c3c(n(CCCNCCN4CCOCC4)c(=O)c2cc1OC)-c1cc2c(cc1C3=O)OCO2 . Reported GI50?
Response: 1.31 µM

Request: Entry under review: CCC(C)CC(CC)NCCN1CCN(C(CC)CC(C)CC)C1=S (stereo unspecified) . Reported GI50?
Response: 2.55 µM

Request: Entry under review: Clc1ccc(Nc2nc3ccccc3c3occc23)cc1 . Reported GI50?
Response: 10.9 µM

Request: Entry under review: COC(=O)[C@]12CC[C@@H](C)[C@H](C)[C@@H]1C1=CC[C@@H]3[C@@]4(C)C=C(O)C(=O)C(C)=C4CC[C@@]3(C)[C@]1(C)CC2 . Reported GI50?
Response: 19.2 µM

Request: Entry under review: Cc1ccc(-n2c(-c3ccc(Cl)cc3)cs/c2=N\NC(=O)COc2n[nH]c(=O)c3ccccc23)cc1 . Reported GI50?
Response: 78.1 µM

====

- System: HS 578T breast
- method.notes: NCI tumour cell line growth inhibition, 48 h
measure: TGI (µM)
Express your answer in µM, writing the number without its unit.

Request: Entry under review: COC(=O)[C@]12CC[C@@H](C)[C@H](C)[C@@H]1C1=CC[C@@H]3[C@@]4(C)C=C(O)C(=O)C(C)=C4CC[C@@]3(C)[C@]1(C)CC2 . Reported TGI?
Response: 57.1

Request: Entry under review: CN1CCN(c2c(O)c3c(c(O)c2Cl)C(=O)C=CC3=O)CC1 . Reported TGI?
Response: 5.45

Request: Entry under review: COC1CCC(n2c([C@@H]3CCCC(=O)N3c3ccc(F)c(F)c3)nc3cc(-c4c(C)noc4C)ccc32)CC1 (stereo partly drawn) . Reported TGI?
Response: 9.86

Request: Entry under review: O=C(O)C(CO)NC(=O)C1C(C(=O)O)C(c2ccccc2[N+](=O)[O-])C=C(c2ccco2)N1c1ccncc1 (stereo not drawn) . Reported TGI?
Response: 57.5

====

For each record, write down the corresponding TGI.
- Test system: DMS 114 small cell lung
- method.notes: NCI tumour cell line growth inhibition, 48 h

Request: Query the reported TGI for DMS 114 small cell lung; item: Cc1ccc(N(C(=O)CC(=O)N2N=C(c3ccccc3)C(N=Nc3ccc([N+](=O)[O-])cc3)C2=O)C(=O)c2ccc(Cl)cc2)cc1 (stereo not drawn)
Response: > 51.1 µM

Request: Query the reported TGI for DMS 114 small cell lung; item: CC1(CO)C(=O)OC12CCCCC2 (stereo not drawn)
Response: > 100 µM

Request: Query the reported TGI for DMS 114 small cell lung; item: Cc1oc2c(C)c3oc(=O)cc(C)c3cc2c1CN
Response: > 100 µM

====

- Tested on: RPMI-8226 leukemia
- method.notes: NCI tumour cell line growth inhibition, 48 h; in the data active = GI50 below about 0.43 µM; inactive = the rest
Use one of these outcomes when replying: T = active, F = inactive

Request: What was the test verdict on c1ccc2c(c1)ccc1c3ccccc3ccc21 ?
Response: F

Request: What was the test verdict on CN1CCN(c2cc(Nc3cc(C4CC4)[nH]n3)nc(Nc3ccc(CC(=O)NCc4cccc(F)c4)cc3)n2)CC1 ?
Response: F

Request: What was the test verdict on C=C1C(=O)O[C@H]2[C@H]1CC(=O)/C(C)=C\CC[C@@]1(C)O[C@@H]21 ?
Response: F

Request: What was the test verdict on NCC(=O)CCC(=O)O ?
Response: F

Request: What was the test verdict on O=C1C(=O)c2c(nc3ncccn23)-c2ccccc21 ?
Response: T

Request: What was the test verdict on CN(C)CCCC(=O)Nc1ccc(Cn2nnc3c2C(=O)c2nnn(Cc4ccc(NC(=O)CCCN(C)C)cc4)c2C3=O)cc1 ?
Response: F

Request: What was the test verdict on Cc1[nH]nc(C(=O)Nc2n[nH]c3ccccc23)c1[N+](=O)[O-] ?
Response: F

Request: What was the test verdict on C=CCNc1cccc2c1C(=O)c1ccccc1C2(O)CC=C (stereo not given) ?
Response: F

Request: What was the test verdict on C1C[OH+]CC[OH+]CC[OH+]CC[OH+]CC[OH+]CC[OH+]1.[Cl-].[Ta+5] ?
Response: F

Request: What was the test verdict on COc1cccc2c(Nc3ccc(C(=O)NCCN(C)C)cc3)cc(-c3ccccc3)nc12 ?
Response: F

Request: What was the test verdict on COC1CCC(n2c([C@@H]3CCCC(=O)N3c3ccc(F)c(F)c3)nc3cc(-c4c(C)noc4C)ccc32)CC1 (stereo not given in full) ?
Response: F

Request: What was the test verdict on CC(C)[C@@H](CS(=O)(=O)C(C)C)N1C(=O)[C@@](C)(CC(=O)O)C[C@H](c2cccc(Cl)c2)[C@H]1c1ccc(Cl)cc1 ?
Response: F

Request: What was the test verdict on COc1ccc(-c2c(C#N)c(N)nc3c2CCCc2ccc(F)cc2-3)cc1OC ?
Response: T

Request: What was the test verdict on Clc1ccc(Nc2nc3ccccc3c3occc23)cc1 ?
Response: F

Request: What was the test verdict on C=C1C(=O)O[C@H]2[C@H]1CC/C(COC(=O)C(=O)c1cn(C)c3ccc(OC)cc13)=C\CC[C@@]1(C)O[C@@H]21 ?
Response: F

====

- System: PC-3 prostate
- method.notes: NCI tumour cell line growth inhibition, 48 h
measure: TGI

Request: Entry under review: C=C1CO[C@@H]2C[C@@H]1CCC1(C)OC1CC/C(C)=C/CC[C@@]2(C)O (stereo not given in full) . Reported TGI?
Response: 36.9 µM

Request: Entry under review: CC(C)(C)n1cc(-c2ccnc(NCCNS(=O)(=O)c3cccc4ccccc34)c2)c(-c2cccc(F)c2)n1 . Reported TGI?
Response: 54.4 µM

Request: Entry under review: O=[N+]([O-])c1cc(Cl)ccc1S(=O)(=O)c1cc(Cl)cc2c1NCCC2 . Reported TGI?
Response: > 100 µM

Request: Entry under review: CC(C)(C)c1nnc2n(c1=O)N=CC(c1ccc(Br)cc1)S2 (stereo not given) . Reported TGI?
Response: > 100 µM

Request: Entry under review: COC1=CCC2=C(CCN(C(=O)C3CCC3)C2Cc2ccc(OC)c(O)c2)C1 (stereo not given) . Reported TGI?
Response: > 100 µM

Request: Entry under review: C=C1C(=O)O[C@H]2[C@H]1CC(=O)/C(C)=C\CC[C@@]1(C)O[C@@H]21 . Reported TGI?
Response: 8.7 µg/mL

Request: Entry under review: CC(=O)C(C(=O)C(C)(C)C)C(=O)C(C)(C)C . Reported TGI?
Response: > 100 µM

Request: Entry under review: Clc1ccc(-c2nn3c(C45CC6CC(CC(C6)C4)C5)nnc3s2)cc1 . Reported TGI?
Response: > 100 µM

Request: Entry under review: CS(=O)(=O)CS(=O)CS(=O)CS(=O)CC(NC(=O)CCC(N)C(=O)O)C(=O)O (stereo not given) . Reported TGI?
Response: > 100 µM

Request: Entry under review: C#CC#CC#CC#CC#CC#CC#CC#CCC1OC[C@H](COC(=O)O[C@@H](C(=O)O[C@H]2C[C@@]3(O)[C@@H](OC(=O)c4ccccc4)[C@@H]4[C@]5(OC(C)=O)CO[C@@H]5C[C@H](O)[C@@]4(C)C(=O)[C@H](OC(C)=O)C(=C2C)C3(C)C)[C@@H](NC(=O)c2ccccc2)c2ccccc2)O1 (stereo not given in full) . Reported TGI?
Response: > 33.3 µM

Request: Entry under review: CC1=CC(=O)/C(=C/N2CCNC2=S)C(=O)O1 . Reported TGI?
Response: > 100 µM

Request: Entry under review: c1csc(-c2nnc(C34CC5CC(CC(C5)C3)C4)o2)c1 . Reported TGI?
Response: > 100 µM

Request: Entry under review: C[C@@]12CCC[C@@](C)(C(=O)O)C1CC[C@@]13CC(=O)[C@@](CO)(CCC12)C3 (stereo not given in full) . Reported TGI?
Response: > 100 µM

Request: Entry under review: N#Cc1ccc2oc3ccc(C#N)cc3c(=O)c2c1 . Reported TGI?
Response: 55 µM

Request: Entry under review: COc1ccc(C(=O)N/N=C/c2ccc(O)cc2O)cc1Nc1ccnc(C(F)(F)F)c1 . Reported TGI?
Response: 24.6 µM

Request: Entry under review: O=[N+]([O-])c1ccc(Cl)cc1N/N=C/c1cccs1 . Reported TGI?
Response: > 100 µM

Request: Entry under review: CC(C)C(/C=C/c1ccccc1)=N\NC(=S)NN . Reported TGI?
Response: > 100 µM

Request: Entry under review: CC12CCC(C1)C(C)(C)C2OC(=O)c1ccccc1C(=O)O (stereo not given) . Reported TGI?
Response: > 100 µM

Request: Entry under review: O=C1C(=O)c2c(nc3ncccn23)-c2ccccc21 . Reported TGI?
Response: 1.34 µM

Request: Entry under review: CC(C)CC(=O)CC(O)C(Cl)(Cl)Cl (stereo not given) . Reported TGI?
Response: > 100 µM
